Test system: MCF7
experimental details: NCI tumour cell line growth inhibition, 48 h
Activity calls are given as the source filed them. Cut-off read from the data, not from the text of the source: active = GI50 up to about 1.1 µM and inactive = higher.
Possible outcomes: active, inactive

| molecule | label |
| --- | --- |
| C/C(=C/CC[C@]1(CO)CC[C@]2(CO)[C@H](CC[C@@H]3[C@@]4(C)CC[C@H](OC5OCC(O)C(O)C5OC5OC(CO)C(O)C(O)C5O)C(C)(C)[C@@H]4CC[C@]32C)[C@H]1O)CO (stereo partly specified) | inactive |
| CCOC(=O)c1c(SC)nc(-c2ccc(Cl)cc2)sc1=N.[O-][Cl+3]([O-])([O-])O | inactive |
| N#C/C(=C/C=C/c1ccco1)C(N)=O | inactive |
| CCNc1cc2c3c(c1)CCCN3CCC2 | inactive |
| O=c1oc2ccccc2cc1-c1nc2ccccc2c(=O)[nH]1 | inactive |
| CCCCCCCCCCC/C=C(/C(=O)CCCO[Si](C)(C)C(C)(C)C)C(=O)OC | inactive |
| CO/C(=C/C(=O)C(Cl)(Cl)Cl)CC/C(=C\C(=O)C(Cl)(Cl)Cl)OC | inactive |
| c1ccc(/N=C2/SC(c3ccccc3)(c3ccccc3)c3ccccc32)cc1 | inactive |
| O=C1NC(Nc2ccccc2Cl)=N/C1=C\c1c(Cl)cccc1Cl | inactive |
| N#CCCC1(CCC#N)CCCCCCC(CCC#N)(CCC#N)C(=O)C1=O | inactive |
| O=[N+]([O-])C(=C(N1CCOCC1)N1CCOCC1)/C(Cl)=C(\Cl)Br | inactive |
| NC1=Nc2ccccc2Sc2nncn21 | inactive |
| CCOC(=O)CCC(NC(=O)C(N)c1ccc([N+](=O)[O-])cc1)C(=O)NC(CCC(=O)OCC)C(=O)OCC (stereo unspecified) | inactive |
| COc1ccc(-c2cn3c(nc4ccccc43)c(/C=C/c3cccs3)n2)cc1 | inactive |
| COc1ccc(/C=C2/CSCC3=C2N=C(S)NC3c2ccc(OC)c(OC)c2OC)c(OC)c1OC (stereo unspecified) | active |
| Cc1ccc(C)c(/C(=N\N=C(N)N)C2CC2)c1 | inactive |
| NS(=O)(=O)c1nnc(NS(=O)(=O)c2cccc3cccnc23)s1 | inactive |
| CN(C)CCCNC(=O)c1c(O)c2ccccc2n(C)c1=O | inactive |
| Nc1ncc(C=O)c(NCC2(CO)CCC2)n1 | inactive |
| CC(=O)Nc1c(S(=O)(=O)c2ccccc2)c(C)c(C)n1CCN(C)C | inactive |
| O=C(/C=C/c1ccc(-c2ccccc2)cc1)NCc1ccc(C(=O)NCCc2c[nH]c3ccccc23)cc1 | inactive |
| COc1ccc(Nc2nc3ccccc3n3cccc23)cc1OC | inactive |
| COC(=O)C1=C(C)N2[C@H](C(=O)O)CS[C@@]2(C)[C@H](C(=O)OC)[C@H]1c1cccc([N+](=O)[O-])c1 | inactive |
| Cc1cn(CC(=S)NCCc2c[nH]c3ccccc23)c(=O)[nH]c1=O | inactive |
| O=C(NCCN(CCNC(=O)c1cccc(=O)n1O)CCN(CCNC(=O)c1cccc(=O)n1O)CCNC(=O)c1cccc(=O)n1O)c1cccc(=O)n1O | inactive |
| COc1cc(S(=O)(=O)Nc2ccc(-c3csc(/N=C\C=C\c4ccccc4)n3)cc2)ccc1Cl | inactive |
| Cc1ccc(OCC2OC(n3cnc4c(N(C)C)nc(Br)nc43)CC2Oc2ccc(C)cc2)cc1 (stereo unspecified) | inactive |
| Cn1c(=N)n[n+]([O-])c2ccccc21 | inactive |
| N/N=C1N=C(Cl)/C(=C/c2ccco2)N\1 | inactive |
| COc1ccc2c(c1)C(=O)OCCC2 | inactive |
| CCOC(=O)COc1cc(-c2ccccc2)nc2cc(F)ccc12 | inactive |
| N#CCC12CC=CCC1=C(O)C(=O)c1ccc(O)cc12 (stereo unspecified) | inactive |
| CCOC(=O)N(C)C1(c2ccccc2)CCN(CCCC(=O)c2ccc(F)cc2)CC1 | inactive |
| CC(C)(C)C1CCC2c3c([nH]c4ccccc34)C3C(=O)N(c4ccc(C(=O)O)cc4)C(=O)C3C2C1 (stereo unspecified) | inactive |
| Cc1ccc([S+]([O-])c2sccc2C=O)cc1 (stereo unspecified) | inactive |
| NC1CC(Cl)c2c(Cl)sc(Cl)c21 (stereo unspecified) | inactive |
| C/C(=N\Nc1nc2ccccc2[nH]1)c1ccc2ccccc2n1 | inactive |
| Cc1ccc(-n2c(O)c(C#N)c3[nH]nc(N)c3c2=O)cc1 | inactive |
| N#Cc1c(C#N)c(-c2ccccc2)n(Cc2ccccc2)c1N | inactive |
| O=C1CCCCN1C(=O)c1ccc([N+](=O)[O-])cc1 | inactive |
| CC(CC(=O)CO[C@H]1[C@H](O)[C@@H](O)[C@@H](O)[C@@H]2NC(=O)c3c(cc4c(c3O)OCO4)[C@H]21)OC1OC(CO)C(O)C(O)C1O (stereo partly specified) | active |

Taken from ChEMBL document CHEMBL1201862.
